assay: NCI Yeast Anticancer Drug Screen. Data for the wt2 strain (AID 169);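 note: 0% = growth of vehicle-treated yeast cultures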; details: S. cerevisiae wt2 strain growth inhibition; at 33.0 µM
This is part of a sample that, as a whole, favours compounds with a hit. Of some 79,000 tested, about 15% had one in any assay. Activity calls are given as the source filed them. Cut-off read from the data, not from the text of the source: active = growth inhibition above about 70%; inactive = the rest.
// classify into active, inactive

For orientation, consider the following solved cases.
COMPOUND: CC1(C2CC2)C(C#N)(C#N)C1(C#N)C#N
CLASS NAME: inactive
--
COMPOUND: Cc1c2cc[n+](CCO)cc2c(C)c2c1[nH]c1ccc(O)cc12
CLASS NAME: inactive
--
COMPOUND: O=C(C#Cc1ccccc1)/C=C/c1ccccc1
CLASS NAME: active
--
COMPOUND: COc1cc(C(=O)C=O)cc(OC)c1OC
CLASS NAME: inactive
--
COMPOUND: CC(C)OP(=O)(OC(C)C)C(=NCCO)NNc1ccc([N+](=O)[O-])cc1
CLASS NAME: inactive
--
COMPOUND: NNc1ccccc1-c1nc2ccccc2[nH]1
CLASS NAME: inactive

Prompt: Any idea what this test logged for CCCC/C=C1\CCC(CN2CCCC2)C1=O (stereo not drawn) ?
Response: inactive

Prompt: Lab log entry: CC12CCC(CC(=O)/C1=C(/Br)I)C2(C)C (stereo not drawn) — outcome as called in the assay?
Response: inactive

Prompt: Outcome logged for "Cc1cccc(/C=N/NC(=S)NC2CCCCC2)n1" in this assay:
Response: inactive

Prompt: Please let me know the test result on file for O=C1CCC(Cc2ccccc2)CN1 (stereo not drawn) .
Response: inactive

Prompt: What did this assay record as the result for "Cc1cc(C)c2[s+]snc2c1" ?
Response: inactive

Prompt: What outcome does the record of this test show for "CCOc1ccc(N)c(S)c1" ?
Response: active

Prompt: Per the records of this test, what outcome belongs to CCC(C)COC(=O)Nc1cccc(Cl)c1 (stereo not drawn) ?
Response: active

* * *

experiment: NCI Yeast Anticancer Drug Screen. Data for the wt2 strain (AID 169);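 note: 0% = growth of vehicle-treated yeast cultures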; details: S. cerevisiae wt2 strain growth inhibition; at 1.2 µM; stronger effect = higher value
About 79,000 compounds went through this panel and 15% of them were active in at least one assay; those are over-represented in the sample as a whole.
OBSERVABLE: growth inhibition (%)
Numbers only here, please. The scale is %.

The following molecules have reported results that may help.
MOLECULE: CCN(CC)C(=S)N/N=C(\C)c1ccccc1O
RESULT UNITS: %
growth inhibition: -37
//
MOLECULE: CCN1CCC(O)(c2ccc(Oc3ccc(Cl)cc3)cc2)C(C(=O)c2ccc(Oc3ccc(Cl)cc3)cc2)C1 (stereo unspecified)
RESULT UNITS: %
growth inhibition: -21

GET /value?item= "Cc1cc(C)c2[s+]snc2c1" &field=growth inhibition returns -2

Recorded result, "CC(C)=CCc1c2c(c(O)c3c(=O)c(-c4ccc(O)c(O)c4)coc13)C=CC(C)(C)O2" , growth inhibition: -50

The measured growth inhibition associated with "CCN(CC)CCNc1ccc2nc(C)n3c4ccc(O)cc4c(=O)c1c23" reads 0

Sure, the documented growth inhibition for O=C1CC(C(O)(C(F)(F)F)C(F)(F)Cl)CCC1C(O)(C(F)(F)F)C(F)(F)Cl (stereo unspecified) is 51

* * *

assay: NCI Yeast Anticancer Drug Screen. Data for the wt1 strain (AID 149);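 note: 0% = growth of vehicle-treated wt1 cultures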; settings: S. cerevisiae wt1 strain (SPY 50644) growth inhibition; at 3.7 µM; stronger effect = higher value
The panel holds about 79,000 compounds, 15% with a hit somewhere; the sample as a whole holds those more often.
OBSERVABLE: growth inhibition (%)
Provide only the numeric value, understood in %.

Example cases with answers are listed next.
COMPOUND: Cc1cccc(C)c1NC(=O)C(C#N)C1=C(Cl)C(=O)c2ccccc2C1=O (stereo not given)
growth inhibition (%): 24
--
COMPOUND: CCC(=O)C1=C(O)c2cc(OC)ccc2CC1C(=O)OC (stereo not given)
growth inhibition (%): 5
--
COMPOUND: C[n+]1c(/C=C/c2ccc(/C=N/NC(=O)c3ccc(C(=O)N/N=C/c4ccc(/C=C/c5cn6ccccc6[n+]5C)cc4)cc3)cc2)cn2ccccc21
growth inhibition (%): 88

// recorded growth inhibition for "COC(=O)C1=C(C(=O)OC)CC(n2nnc(C(=O)OC)c2C(=O)OC)=CC1" : 0

GET /value?item= "CCCCCCCCCCCNC=O" &field=growth inhibition returns -10

The reported value for "CC(C)OP(=O)(OC(C)C)C(=NCCO)NNc1ccc([N+](=O)[O-])cc1" in terms of growth inhibition is 1

* * *

assay: NCI Yeast Anticancer Drug Screen. Data for the CLN2oe strain (AID 163);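 note: 0% = growth of vehicle-only control cultures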; conditions: S. cerevisiae CLN2oe strain, at 1.2 µM, stronger effect = higher value
This is part of a sample that, as a whole, favours compounds with a hit. Of some 79,000 tested, about 15% had one in any assay.
OBSERVABLE: growth inhibition (%)
Reply numerically in %, unit not repeated.

Example entries and their recorded answers appear below.
COMPOUND SMILES: CC(C)=CCC/C(C)=C/CN1C(=O)C=CC1=O
growth inhibition, %: -13
//
COMPOUND SMILES: O=c1cccccc1[O-].O=c1cccccc1[O-].O=c1cccccc1[O-].[Eu+3]
growth inhibition, %: 5
//
COMPOUND SMILES: NCCCSc1ccccc1
growth inhibition, %: -4

Quick note, growth inhibition for "O=C(NC(N1CCN(c2cc3c(cc2F)c(=O)c(C(=O)O)cn3C2CC2)CC1)(C(F)(F)F)C(F)(F)F)c1ccccc1" landed at 2

growth inhibition reported for this compound "O=C1C=C(Br)C(=O)c2ccccc21" : 5

"CCCCOc1ccc2nc(C)cc(N=[N+]=[N-])c2c1" yielded growth inhibition of 7

* * *

// values below are reported growth inhibition
assay: NCI Yeast Anticancer Drug Screen. Data for the cln2 rad14 strain (AID 165);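 note: 0% = growth equal to vehicle treated cultures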; details: S. cerevisiae cln2 rad14 strain, at 5.0 µM (retest, dose inferred, filed as 0.5), stronger effect = higher value
About 79,000 compounds went through this panel and 15% of them were active in at least one assay; those are over-represented in the sample as a whole. The source made the active and inactive calls. No stated cut-off is given here; in the data, active means growth inhibition above about 70%; inactive means the rest.

Examples with their reported growth inhibition follow.
MOLECULE: CCC(OC(C)=O)C1CC(C(C)C)CCC1C (stereo not drawn)
EXPERIMENTAL VALUE: 9% (inactive)
//
MOLECULE: Cc1oc2ccccc2c(=O)c1Cn1nnc2ccccc21
EXPERIMENTAL VALUE: 9% (inactive)
//
MOLECULE: Oc1c2c(c(O)c3ccccc13)C1(N=N2)c2ccccc2Oc2ccccc21
EXPERIMENTAL VALUE: 19% (inactive)

Value of growth inhibition reported for the molecule "c1ccc2nc3c(nc2c1)sc1ccccc13" is -29% (inactive)

The recorded growth inhibition for entry "COC(=O)/C(C#N)=C\NC(=S)C(N)=S" equals 22% (inactive)

Reported growth inhibition for "CNCC(C)CNC" was 20% (inactive)

* * *

experiment: NCI Yeast Anticancer Drug Screen. Data for the rad52 strain (AID 147);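 note: 0% = growth of vehicle-treated control cultures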; conditions: S. cerevisiae rad52 mutant growth inhibition; at 1.2 µM; stronger effect = higher value
The panel holds about 79,000 compounds, 15% with a hit somewhere; the sample as a whole holds those more often. Residues, ends and D or L forms follow the SMILES beside them. *: point of attachment. Fmoc = O=C(OCC1c2ccccc2-c2ccccc21)*; Boc = CC(C)(C)OC(=O)*
OBSERVABLE: growth inhibition (%)
Your answer should be a plain number; it is taken to be in %.

Solved cases below.
COMPOUND: CCN(CC)C(=S)SC(=S)N(CC)CC
OBSERVABLE: growth inhibition
EXPERIMENTAL VALUE: -33
//
COMPOUND: CCCCCCCCCCCCOCCOCCOCC(N)=O
OBSERVABLE: growth inhibition
EXPERIMENTAL VALUE: 15
//
COMPOUND: c1cc(-c2sc(-c3ccncc3)c(-c3ccncc3)c2-c2ccncc2)ccn1
OBSERVABLE: growth inhibition
EXPERIMENTAL VALUE: 4
//
COMPOUND: COC(=O)c1ccccc1N=NNc1cccc(SC)c1
OBSERVABLE: growth inhibition
EXPERIMENTAL VALUE: 11

Recorded result, "CCCCCCNCCCNc1c2ccccc2nc2cccc([N+](=O)[O-])c12" , growth inhibition: 43

For reference, reported growth inhibition for OC(CC(O)(C(F)(F)F)C(F)(F)F)c1ccc(C(O)CC(O)(C(F)(F)F)C(F)(F)F)cc1 (configuration not stated) stands at 47

Lab book: growth inhibition of "C/C(=N\Sc1ccccc1)c1ccccc1O" noted as 1

Form field growth inhibition, entry "Cc1cc(O)c(C(C)C)cc1SC#N" : 2

Record summary for "COC(=O)C1=C(C(=O)OC)CC(n2nnc(C(=O)OC)c2C(=O)OC)=CC1" : reported growth inhibition = -1

get_value(item= "O=C(c1cc(=O)c2ccc(O)cc2o1)c1ccc(Cl)cc1Cl" , readout=growth inhibition) returns -31

response.value for CC(C)(C)OC(=O)NCCCCC(NC(=O)C(Cc1c[nH]c2ccccc12)NC(=O)OCC1c2ccccc2-c2ccccc21)C(=O)O (configuration not stated) (Fmoc-Trp-Lys(Boc)-OH; configuration not given here) (field: growth inhibition) = -3

The compound listed as "CCC(/C=C/c1ccccc1)=N\Nc1ccc(Cl)c(Cl)c1" has a reported growth inhibition of 7

For this compound ( "Cc1cc(C)c2[s+]snc2c1" ), measured growth inhibition is 12

For this compound ( O=C1CC(C(O)(C(F)(F)F)C(F)(F)Cl)CCC1C(O)(C(F)(F)F)C(F)(F)Cl (configuration not stated) ), measured growth inhibition is 54

Form: compound = "C[N+](C)([O-])CCCNc1c2ccccc2nc2cccc([N+](=O)[O-])c12" ; growth inhibition = 54

For this compound ( "CC1(C)CC(=O)C(/C=N/c2nc(-c3ccc(Br)cc3)cs2)=C(O)C1" ), measured growth inhibition is 11

Given item O=C(NCCCCN1CC2CCCC2C1)C(C1CCCCC1)C1CCCCC1 (configuration not stated) , the value recorded as its growth inhibition is 11

GET /value?item= "CN(CCOc1ccc(Cl)cc1)CCOc1ccc(Cl)cc1" &field=growth inhibition returns 8

Lab book: growth inhibition of "Cc1cc(C)c(S(=O)(=O)c2ccc(Cl)cc2)c(C)c1" noted as -3
